test_target: PD-1 (Homo sapiens (Human)) (UniProt Q15116)
Sequence (Q15116 21-288 limits assumed): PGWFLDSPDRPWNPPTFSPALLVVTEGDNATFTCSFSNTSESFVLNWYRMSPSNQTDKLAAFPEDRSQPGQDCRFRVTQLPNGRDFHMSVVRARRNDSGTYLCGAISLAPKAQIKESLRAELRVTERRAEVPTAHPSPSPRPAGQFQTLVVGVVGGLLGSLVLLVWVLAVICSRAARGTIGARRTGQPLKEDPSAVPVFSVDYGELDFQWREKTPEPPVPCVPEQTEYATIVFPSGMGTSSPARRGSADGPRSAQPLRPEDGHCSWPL
assay_method_text: flow cytometry, Jurkat/PD-1 cells
measured_quantity: MFI at 50 nM

INSERT INTO measurements (binder, test_value) VALUES
  ('variant PD-L2 IgV-Fc I13V, H15Q, Q82R, V89D (Fc fusion, not shown: a dimerising Fc or GST; small tags and cut ends) FTVTVPKELYIVEQGSNVTLECNFDTGSHVNLGAITASLQKVENDTSPHRERATLLEEQLPLGKASFHIPQVQVRDEGQYRCIIIYGDAWDYKYLTLK', 49500),
  ('variant PD-L2 IgV-Fc H15Q, S39I, S67L, V89D (Fc fusion, not shown: a dimerising Fc or GST; small tags and cut ends) LFTVTVPKELYIIEQGSNVTLECNFDTGSHVNLGAITAILQKVENDTSPHRERATLLEEQLPLGKALFHIPQVQVRDEGQYQCIIIYGDAWDYKYLTLK', 45500),
  ('variant PD-L2 IgV-Fc H15Q, T47A (Fc fusion, not shown: a dimerising Fc or GST; small tags and cut ends) FTVTVPKELYIIEQGSNVTLECNFDTGSHVNLGAITASLQKVENDASPHRERATLLEEQLPLGKASFHIPQVQVRDEGQYQCIIIYGVAWDYKYLTLK', 26600),
  ('variant PD-L2 IgV-Fc S67L, V89D (Fc fusion, not shown: a dimerising Fc or GST; small tags and cut ends) LFTVTVPKELYIIEHGSNVTLECNFDTGSHVNLGAITASLQKVENDTSPHRERATLLEEQLPLGKALFHIPQVQVRDEGQYQCIIIYGDAWDYKYLTLK', 16000),
  ('variant PD-L2 IgV-Fc H15Q, S67L, R76G (Fc fusion, not shown: a dimerising Fc or GST; small tags and cut ends) LFTVTVPKELYIIEQGSNVTLECNFDTGSHVNLGAITASLQKVENDTSPHRERATLLEEQLPLGKALFHIPQVQVGDEGQYQCIIIYGVAWDYKYLTLK', 47200),
  ('variant PD-L2 IgV-Fc H15Q, S67L, Q72H, R76G, V89D (Fc fusion, not shown: a dimerising Fc or GST; small tags and cut ends) LFTVTVPKELYIIEQGSNVTLECNFDTGSHVNLGAITASLQKVENDTSPHRERATLLEEQLPLGKALFHIPHVQVGDEGQYQCIIIYGDAWDYKYLTLK', 40200),
  ('variant PD-L2 IgV-Fc Q82R, V89D (Fc fusion, not shown: a dimerising Fc or GST; small tags and cut ends) LFTVTVPKELYIIEHGSNVTLECNFDTGSHVNLGAITASLQKVENDTSPHRERATLLEEQLPLGKASFHIPQVQVRDEGQYRCIIIYGDAWDYKYLTLK', 45000),
  ('variant PD-L2 IgV-Fc I13V, H15Q, R76G, D77N, Q82R, V89D (Fc fusion, not shown: a dimerising Fc or GST; small tags and cut ends) FTVTVPKELYIVEQGSNVTLECNFDTGSHVNLGAITASLQKVENDTSPHRERATLLEEQLPLGKASFHIPQVQVGNEGQYRCIIIYGDAWDYKYLTLK', 33100),
  ('variant PD-L2 IgV-Fc V89D (Fc fusion, not shown: a dimerising Fc or GST; small tags and cut ends) LFTVTVPKELYIIEHGSNVTLECNFDTGSHVNLGAITASLQKVENDTSPHRERATLLEEQLPLGKASFHIPQVQVRDEGQYQCIIIYGDAWDYKYLTLK', 3360),
  ('variant PD-L2 IgV-Fc I13V, S39I, E44D, Q82R, V89D (Fc fusion, not shown: a dimerising Fc or GST; small tags and cut ends) LFTVTVPKELYIVEHGSNVTLECNFDTGSHVNLGAITAILQKVDNDTSPHRERATLLEEQLPLGKASFHIPQVQVRDEGQYRCIIIYGDAWDYKYLTLK', 71400),
  ('variant PD-L2 IgV-Fc I13V, H15Q, E44D, V89D (Fc fusion, not shown: a dimerising Fc or GST; small tags and cut ends) LFTVTVPKELYIVEQGSNVTLECNFDTGSHVNLGAITASLQKVDNDTSPHRERATLLEEQLPLGKASFHIPQVQVRDEGQYQCIIIYGDAWDYKYLTLK', 24000),
  ('variant PD-L2 IgV-Fc H15Q, S67L, R76G, I85F (Fc fusion, not shown: a dimerising Fc or GST; small tags and cut ends) LFTVTVPKELYIIEQGSNVTLECNFDTGSHVNLGAITASLQKVENDTSPHRERATLLEEQLPLGKALFHIPQVQVGDEGQYQCIFIYGVAWDYKYLTLK', 2870),
  ('variant PD-L2 IgV-Fc I13V, H15Q, V31A, N45S, Q82R, V89D (Fc fusion, not shown: a dimerising Fc or GST; small tags and cut ends) FTVTVPKELYIVEQGSNVTLECNFDTGSHANLGAITASLQKVESDTSPHRERATLLEEQLPLGKASFHIPQVQVRDEGQYRCIIIYGDAWDYKYLTLK', 68000),
  ('variant PD-L2 IgV-Fc I13V, H15Q, T47A, Q82R (Fc fusion, not shown: a dimerising Fc or GST; small tags and cut ends) FTVTVPKELYIVEQGSNVTLECNFDTGSHVNLGAITASLQKVENDASPHRERATLLEEQLPLGKASFHIPQVQVRDEGQYRCIIIYGVAWDYKYLTLK', 89100),
  ('variant PD-L2 IgV-Fc H15Q, K65R (Fc fusion, not shown: a dimerising Fc or GST; small tags and cut ends) LFTVTVPKELYIIEQGSNVTLECNFDTGSHVNLGAITASLQKVENDTSPHRERATLLEEQLPLGRASFHIPQVQVRDEGQYQCIIIYGVAWDYKYLTLK', 13500),
  ('variant PD-L2 IgV-Fc I13V, E44D, Q82R, V89D (Fc fusion, not shown: a dimerising Fc or GST; small tags and cut ends) LFTVTVPKELYIVEHGSNVTLECNFDTGSHVNLGAITASLQKVDNDTSPHRERATLLEEQLPLGKASFHIPQVQVRDEGQYRCIIIYGDAWDYKYLTLK', 45200),
  ('variant PD-L2 IgV-Fc I13V, H15Q, V89D (Fc fusion, not shown: a dimerising Fc or GST; small tags and cut ends) FTVTVPKELYIVEQGSNVTLECNFDTGSHVNLGAITASLQKVENDTSPHRERATLLEEQLPLGKASFHIPQVQVRDEGQYQCIIIYGDAWDYKYLTLK', 28700);
